Cited source for all entries: patent US20190041402A1

Molecular target: T1, extracellular domain (ECD) of human αKlotho, amino acids E34-S981 with C-terminal 6-His tag (R&D Systems … (human, UniProt Q9UEF7 34-981))
T1 construct: range 34-981; also called αKlotho (aa34-981); target antigen
T1 sequence: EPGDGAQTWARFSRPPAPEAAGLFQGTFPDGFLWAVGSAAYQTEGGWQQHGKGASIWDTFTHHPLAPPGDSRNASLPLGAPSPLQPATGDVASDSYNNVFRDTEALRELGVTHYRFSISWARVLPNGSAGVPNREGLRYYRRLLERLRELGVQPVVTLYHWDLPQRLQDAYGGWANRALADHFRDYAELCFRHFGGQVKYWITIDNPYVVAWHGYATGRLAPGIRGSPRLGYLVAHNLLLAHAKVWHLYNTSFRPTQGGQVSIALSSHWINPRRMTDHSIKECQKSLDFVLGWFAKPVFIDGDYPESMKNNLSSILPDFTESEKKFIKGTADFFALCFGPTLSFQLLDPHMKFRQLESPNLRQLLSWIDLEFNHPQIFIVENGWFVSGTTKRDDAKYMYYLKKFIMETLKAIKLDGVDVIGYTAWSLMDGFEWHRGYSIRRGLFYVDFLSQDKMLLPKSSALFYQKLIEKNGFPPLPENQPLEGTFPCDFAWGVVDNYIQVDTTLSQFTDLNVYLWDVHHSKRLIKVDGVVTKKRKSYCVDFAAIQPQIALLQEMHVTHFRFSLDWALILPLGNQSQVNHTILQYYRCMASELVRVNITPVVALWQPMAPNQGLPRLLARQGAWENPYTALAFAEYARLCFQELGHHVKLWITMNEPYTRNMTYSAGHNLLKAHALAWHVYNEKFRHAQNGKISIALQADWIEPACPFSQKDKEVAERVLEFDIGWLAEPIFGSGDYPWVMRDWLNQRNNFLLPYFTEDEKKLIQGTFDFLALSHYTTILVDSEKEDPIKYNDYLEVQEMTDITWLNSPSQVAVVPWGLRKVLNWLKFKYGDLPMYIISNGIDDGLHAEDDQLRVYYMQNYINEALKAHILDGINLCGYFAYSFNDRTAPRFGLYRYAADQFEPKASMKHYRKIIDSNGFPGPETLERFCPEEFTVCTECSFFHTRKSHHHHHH
Assay: SPR, Fab captured by anti-H+L IgG, αKlotho injected at 50 to 6.25 ug/ml, Langmuir fit [continued]
The threshold is 0.0008 s⁻¹. Values of koff beneath it are tagged Y; values meeting or exceeding it are tagged N.

• anti-αKlotho Fab clone 4829 (Fab, V domains shown, Fab (also as Fab-phage); FLAG tag on light chain; also called sb198) VH: EVQLVESGGGLVQPGGSLRLSCAASGFNISSYYIHWVRQAPGKGLEWVASIYSSYGYTSYADSVKGRFTISADTSKNTAYLQMNSLRAEDTAVYYCARYSWSPYWWWAYSGLDYWGQGTLVTVSS VL: DIQMTQSPSSLSASVGDRVTITCRASQSVSSAVAWYQQKPGKAPKLLIYSASSLYSGVPSRFSGSRSGTDFTLTISSLQPEDFATYYCQQGGGLITFGQGTKVEIKR = Y
• anti-αKlotho Fab clone 4820 (Fab, V domains shown, Fab (also as Fab-phage); FLAG tag on light chain; also called sb189) VH: EVQLVESGGGLVQPGGSLRLSCAASGFNISSYYMHWVRQAPGKGLEWVASIYSSYSSTYYADSVKGRFTISADTSKNTAYLQMNSLRAEDTAVYYCARGAWAMDYWGQGTLVTVSS VL: DIQMTQSPSSLSASVGDRVTITCRASQSVSSAVAWYQQKPGKAPKLLIYSASSLYSGVPSRFSGSRSGTDFTLTISSLQPEDFATYYCQQSPWGAYLITFGQGTKVEIKR = N
• anti-αKlotho Fab clone 4826 (Fab, V domains shown, Fab (also as Fab-phage); FLAG tag on light chain; also called sb195) VH: EVQLVESGGGLVQPGGSLRLSCAASGFNISSYYMHWVRQAPGKGLEWVASISSSYGYTYYADSVKGRFTISADTSKNTAYLQMNSLRAEDTAVYYCARGYPASSYYYPSSALDYWGQGTLVTVSS VL: DIQMTQSPSSLSASVGDRVTITCRASQSVSSAVAWYQQKPGKAPKLLIYSASSLYSGVPSRFSGSRSGTDFTLTISSLQPEDFATYYCQQAGFFSYPITFGQGTKVEIKR = N
• anti-αKlotho Fab clone 4833 (Fab, V domains shown, Fab (also as Fab-phage); FLAG tag on light chain; also called sb202) VH: EVQLVESGGGLVQPGGSLRLSCAASGFNLSSYYMHWVRQAPGKGLEWVASIYPSYSSTYYADSVKGRFTISADTSKNTAYLQMNSLRAEDTAVYYCARSSYSVYFWWYVSAMDYWGQGTLVTVSS VL: DIQMTQSPSSLSASVGDRVTITCRASQSVSSAVAWYQQKPGKAPKLLIYSASSLYSGVPSRFSGSRSGTDFTLTISSLQPEDFATYYCQQSSHGHYPITFGQGTKVEIKR = Y
